STUDY_SYSTEM: T1, cynomolgus galectin-10-His, WGS isoform (cynomolgus)
T1 construct: also called cynoGal10-WGS; not shown: His tag
T1 chain: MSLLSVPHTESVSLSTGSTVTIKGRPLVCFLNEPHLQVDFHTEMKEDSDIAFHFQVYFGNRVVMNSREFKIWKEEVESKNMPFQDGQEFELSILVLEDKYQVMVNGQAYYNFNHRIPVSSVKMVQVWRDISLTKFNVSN
TEST_DETAILS: ELISA, coated antigen 0.5 ug/mL
METRIC_NAME: log10 of EC50 (log10 of the value in nM)
In plain terms, each number is the log10 of measured EC50 in nM.

Request the reported log10 of EC50 associated with 10D02 mouse IgG1 (antibody, V domains shown, VH and VL cloned in frame with mouse IgG1 constant domains; also called 10D02 mIgG1) VH: EVQLVESGGGLVQPGGSLRVSCAASGFTFSSYYMSWVRQAPGKGLEWVSGIVTGGGRTHYTDSVKGRFTITRDNAKNTLYLQMNSLRPEDTALYYCARVNGVVTNYDYWGQGTQVTVSS VL: QAVLTQPPSVSGSPGKTVTISCAGTSSDVGYGNYVSWYQQLPGMAPKLLIYDVNKRASGITDRFSGSKSGNTASLTISGLQSEDEADYFCASYRSPNNVVFGQGTHLTVL
-0.85

Request the reported log10 of EC50 associated with 8H11 mouse IgG1 (antibody, V domains shown, VH and VL cloned in frame with mouse IgG1 constant domains; also called 8H11 mIgG1) VH: ELQLVESGGGLVQPGGSLRLSCAASGFTFSTNYMNWVRQAPGKGLEWVSGITSGGGRTYYADSVKGRFTISRDNAKNTLYLQMNSLKPEDTALYYCARTDHAWLDAWGQGTLVTVSS VL: QAGLTQPPSVSGTLGKTVTISCAGTSSDVGYGNYVSWYQQLPGTAPKLLIYAVSTRASGIPDRFSGSKSGNTASLTISGLLSEDEADYYCASYRSSNNYVFGGGTKLTVL
-1.52

Request the reported log10 of EC50 associated with 11F02 mouse IgG1 (antibody, V domains shown, VH and VL cloned in frame with mouse IgG1 constant domains; also called 11F02 mIgG1) VH: ELQVVESGGGLVQPGGSLRLSCAASGFTFSTNYMNWVRQAPGKGLEWVSGITSHGARTYYADSVKGRFTISRDNSKNTLYLQMNSLKPEDTALYYCARTDHASLDAWGQGTLVTVSS VL: QTVVTQEPSLSVSPGGTVTLTCGLSSGSVTSSNYPGWYQQKPGQAPRTLIYNTNSRYSGVPNRFSGSISGNKAALTITGAQPEDEADYYCALYMGSSSYNTVFGGGTHLTVL
-0.22

Request the reported log10 of EC50 associated with 7B07 mouse IgG1 (antibody, V domains shown, VH and VL cloned in frame with mouse IgG1 constant domains; also called 7B07 mIgG1) VH: QVQLVESGGGLVQPGGSLRLSCAASGFTFRSYDMSWVRQAPGKGPEWVSAIKNGGGITYYADSVKGRFTISRDNAKNTLYLQMNSLKPEDTAVYYCATTHGIGTLGFGSWGQGTQVTVSS VL: SYELTQSASVSVALTQTAKITCDGNNIGSKSAQWYQQKPGQAPALVIYADEYRPEGIPERFSGSNSGNTATLIISGAQAEDEADYYCQVWDGSAAVFGRGTHLTVL
-1.22

Request the reported log10 of EC50 associated with 10B02 mouse IgG1 (antibody, V domains shown, VH and VL cloned in frame with mouse IgG1 constant domains; also called 10B02 mIgG1) VH: QVQLVESGGGLVQPGGSLRVSCAASGFTFSYHYMNWVRQAPGKGLEWVSGISAGGGRTYYADSVKGRFTISRDNAKNTLYLQMNSLNAEDTALYYCARVHGITNDYWGQGTQVTVSS VL: QSALTQPPSVSGSPGKTVTISCAGTSSDVGYGNYVSWYQQLPGMAPKLLIYEVNKRASGITDRFSGSKSGNTAFLTISGLQSEDEADYYCASYRNSNNWVFGGGTHLTVL
-1.40
